assayed-system: BCRP (Homo sapiens, UniProt Q9UNQ0)
Sequence (Q9UNQ0 whole entry): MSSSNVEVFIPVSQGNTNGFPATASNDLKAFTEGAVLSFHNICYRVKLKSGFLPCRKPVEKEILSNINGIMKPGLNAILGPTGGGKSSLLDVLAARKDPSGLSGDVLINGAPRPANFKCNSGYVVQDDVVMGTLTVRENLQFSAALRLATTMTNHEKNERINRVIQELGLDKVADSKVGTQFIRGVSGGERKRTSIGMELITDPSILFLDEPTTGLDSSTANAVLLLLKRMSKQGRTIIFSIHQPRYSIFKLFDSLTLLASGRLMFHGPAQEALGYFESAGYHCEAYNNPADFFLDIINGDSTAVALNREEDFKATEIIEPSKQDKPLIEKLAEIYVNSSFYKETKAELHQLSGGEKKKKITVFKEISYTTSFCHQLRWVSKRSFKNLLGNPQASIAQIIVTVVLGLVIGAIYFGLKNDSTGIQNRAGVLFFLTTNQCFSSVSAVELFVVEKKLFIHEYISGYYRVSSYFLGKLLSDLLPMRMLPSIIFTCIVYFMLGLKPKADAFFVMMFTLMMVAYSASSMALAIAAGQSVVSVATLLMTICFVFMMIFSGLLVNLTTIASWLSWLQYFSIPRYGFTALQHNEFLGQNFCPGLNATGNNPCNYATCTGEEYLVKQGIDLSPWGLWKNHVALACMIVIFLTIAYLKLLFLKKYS
test: Inhibition of BCRP (unknown origin) at 30 uM
experimental-context: not told
outcome-measure: inhibition at 30 µM (%)
Give the number; % is assumed, so skip it.

Param request: inhibition at 30 µM | system BCRP (Homo sapiens, UniProt Q9UNQ0) | item `C[C@]12CCCN1CC1=NNC(=O)c3cc(F)cc4[nH]c2c1c34`
43

###

test: Drug level in C57BL/6 mouse plasma at 10 mg/kg, po after 1 hrs
Type: ADME, organism-based
outcome-measure: concentration at 1 h (ng/mL)
Give the number; ng/mL is assumed, so skip it.

Tell us which concentration at 1 h value is on record for `C[C@]12CCCN1CC1=NNC(=O)c3cc(F)cc4[nH]c2c1c34`
3530

###

assayed-system: Protein mono-ADP-ribosyltransferase PARP6 (Homo sapiens, UniProt Q2NL67)
Sequence (Q2NL67 whole entry): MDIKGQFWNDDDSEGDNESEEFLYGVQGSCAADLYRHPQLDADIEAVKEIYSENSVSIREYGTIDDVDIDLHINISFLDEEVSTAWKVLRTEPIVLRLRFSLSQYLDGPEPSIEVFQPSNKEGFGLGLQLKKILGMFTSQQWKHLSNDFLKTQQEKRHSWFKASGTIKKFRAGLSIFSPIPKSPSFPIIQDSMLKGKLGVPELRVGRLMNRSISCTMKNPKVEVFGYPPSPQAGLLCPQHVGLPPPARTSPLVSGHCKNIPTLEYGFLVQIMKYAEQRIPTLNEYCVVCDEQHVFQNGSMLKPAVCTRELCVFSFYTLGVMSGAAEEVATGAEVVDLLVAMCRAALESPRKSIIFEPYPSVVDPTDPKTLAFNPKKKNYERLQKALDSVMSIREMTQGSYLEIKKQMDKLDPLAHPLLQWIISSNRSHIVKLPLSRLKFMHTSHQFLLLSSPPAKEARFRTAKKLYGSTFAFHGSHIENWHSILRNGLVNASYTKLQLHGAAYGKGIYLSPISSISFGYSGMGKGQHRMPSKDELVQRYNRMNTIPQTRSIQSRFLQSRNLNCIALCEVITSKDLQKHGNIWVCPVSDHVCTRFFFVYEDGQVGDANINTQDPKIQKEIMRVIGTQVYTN
test: Inhibition of PARP-6 (unknown origin) pre-incubated for 30 mins before addition of activated DNA and NAD by chemiluminescent assay
pIC50: −log10 of the molar value.
outcome-measure: pIC50

Tell us which pIC50 value is on record for C[C@]12CCCN1CC1=NNC(=O)c3cc(F)cc4[nH]c2c1c34 [PAMIPARIB]
< 4.00

###

assayed-system: Cytochrome P450 3A4 (Homo sapiens, UniProt P08684)
Sequence (P08684 whole entry): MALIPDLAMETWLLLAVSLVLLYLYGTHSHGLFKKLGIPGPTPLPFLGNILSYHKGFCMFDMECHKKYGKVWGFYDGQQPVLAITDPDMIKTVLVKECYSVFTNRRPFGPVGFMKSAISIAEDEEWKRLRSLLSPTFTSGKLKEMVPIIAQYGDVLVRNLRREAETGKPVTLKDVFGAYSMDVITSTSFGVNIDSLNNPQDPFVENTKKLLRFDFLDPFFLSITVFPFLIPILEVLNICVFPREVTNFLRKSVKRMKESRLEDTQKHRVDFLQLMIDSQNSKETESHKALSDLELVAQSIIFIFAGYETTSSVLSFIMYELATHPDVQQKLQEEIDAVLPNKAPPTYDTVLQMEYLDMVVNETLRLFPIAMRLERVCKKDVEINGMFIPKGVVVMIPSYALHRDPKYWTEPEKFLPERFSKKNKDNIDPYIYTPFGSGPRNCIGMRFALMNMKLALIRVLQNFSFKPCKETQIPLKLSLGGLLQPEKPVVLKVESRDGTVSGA
outcome-measure: IC50

Param request: IC50 | system Cytochrome P450 3A4 (Homo sapiens, UniProt P08684) | item C[C@]12CCCN1CC1=NNC(=O)c3cc(F)cc4[nH]c2c1c34 [PAMIPARIB]
> 10 µM

###

test: Tmax in ICR mouse at 10 mg/kg, po by LC-MS/MS analysis
Assay type: ADME, organism-based
experimental-context: in vivo
outcome-measure: Tmax
A bare number is not enough; add the unit after it.

Tell us which Tmax value is on record for C[C@]12CCCN1CC1=NNC(=O)c3cc(F)cc4[nH]c2c1c34 [PAMIPARIB]
35 min

###

assayed-system: hERG (KCNH2) (Homo sapiens, UniProt Q12809)
Sequence (Q12809 whole entry): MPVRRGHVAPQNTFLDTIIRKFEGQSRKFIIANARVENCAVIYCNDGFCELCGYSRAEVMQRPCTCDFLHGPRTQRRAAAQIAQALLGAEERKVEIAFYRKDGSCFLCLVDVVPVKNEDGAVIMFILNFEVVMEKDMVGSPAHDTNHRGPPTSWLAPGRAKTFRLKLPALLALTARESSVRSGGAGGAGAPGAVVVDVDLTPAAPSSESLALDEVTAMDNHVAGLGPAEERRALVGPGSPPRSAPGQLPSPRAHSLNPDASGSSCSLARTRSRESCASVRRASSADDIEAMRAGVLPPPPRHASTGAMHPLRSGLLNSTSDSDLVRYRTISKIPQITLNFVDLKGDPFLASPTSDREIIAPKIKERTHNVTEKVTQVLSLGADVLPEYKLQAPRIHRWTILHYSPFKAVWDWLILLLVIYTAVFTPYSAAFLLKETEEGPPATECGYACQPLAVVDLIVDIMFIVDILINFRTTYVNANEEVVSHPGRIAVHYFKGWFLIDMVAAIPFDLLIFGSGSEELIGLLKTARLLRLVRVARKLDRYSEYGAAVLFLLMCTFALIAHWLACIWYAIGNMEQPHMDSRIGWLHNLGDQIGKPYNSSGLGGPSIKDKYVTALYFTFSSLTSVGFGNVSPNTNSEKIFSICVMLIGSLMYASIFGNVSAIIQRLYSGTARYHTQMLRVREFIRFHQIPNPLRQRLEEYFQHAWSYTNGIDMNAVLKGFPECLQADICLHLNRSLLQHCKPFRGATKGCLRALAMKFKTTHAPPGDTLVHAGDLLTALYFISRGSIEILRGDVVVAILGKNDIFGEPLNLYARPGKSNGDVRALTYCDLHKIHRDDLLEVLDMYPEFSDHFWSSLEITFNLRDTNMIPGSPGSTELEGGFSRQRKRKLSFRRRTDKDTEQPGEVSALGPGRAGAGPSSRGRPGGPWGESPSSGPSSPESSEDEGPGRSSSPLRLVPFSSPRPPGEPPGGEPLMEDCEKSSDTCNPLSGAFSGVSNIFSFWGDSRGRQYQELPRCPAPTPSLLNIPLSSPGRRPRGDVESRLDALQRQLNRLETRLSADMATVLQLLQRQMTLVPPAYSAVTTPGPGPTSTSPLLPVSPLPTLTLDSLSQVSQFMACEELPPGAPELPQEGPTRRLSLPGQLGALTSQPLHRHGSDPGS
test: Inhibition of human ERG activity at 20 uM by functional cellular assay
outcome-measure: inhibition at 20 µM
A bare number is not enough; add the unit after it.

CC1(C)CC2=NNC(=O)c3cccc4c3c2c(n4CCN2CCCC2)C1 97%
CCN(CC)CCn1c2c3c4c(cccc41)C(=O)NN=C3CC(C)(C)C2 95%
CC1(C)CC2=NNC(=O)c3cc(F)cc4[nH]c(c2c34)C1 32%
CC(C)(N)C(=O)N1CC2=NNC(=O)c3cccc4[nH]c(c2c34)C1 43%

Tell us which inhibition at 20 µM value is on record for `CC(C)N1CC2=NNC(=O)c3cccc4[nH]c(c2c34)C1`
39%

###

test: Unbound fraction in dog plasma
Format: ADME, cell-free, Canis lupus familiaris
outcome-measure: fraction unbound
Please state the value as a number alone, without comment.

Tell us which fraction unbound value is on record for `C[C@]12CCCN1CC1=NNC(=O)c3cc(F)cc4[nH]c2c1c34`
0.21

###

test: Tmax in Beagle dog at 2 mg/kg, po by LC-MS/MS analysis
Format: ADME, organism-based, Canis lupus familiaris
experimental-context: in vivo
outcome-measure: Tmax (min)
Give the number; min is assumed, so skip it.

Tell us which Tmax value is on record for `C[C@]12CCCN1CC1=NNC(=O)c3cc(F)cc4[nH]c2c1c34`
25
